Values compiled from patent US10717725B2.

molecular target: hGPR40 (Homo sapiens, UniProt O14842); assay: FDSS-based intracellular calcium assay in cell lines expressing GPR40; design: 3xFLAG; expressed in transfected cells; settings: intracellular Ca2+ response, cells expressing GPR40, FDSS reader
Sequence (O14842 whole entry): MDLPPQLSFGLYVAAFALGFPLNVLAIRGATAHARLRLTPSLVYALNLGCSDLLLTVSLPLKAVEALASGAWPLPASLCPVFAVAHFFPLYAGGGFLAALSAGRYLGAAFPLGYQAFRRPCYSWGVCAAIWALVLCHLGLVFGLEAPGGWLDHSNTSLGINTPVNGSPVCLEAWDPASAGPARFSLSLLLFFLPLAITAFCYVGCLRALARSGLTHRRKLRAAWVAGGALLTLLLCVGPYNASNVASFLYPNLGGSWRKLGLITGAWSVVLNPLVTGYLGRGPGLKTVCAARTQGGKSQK
pEC50: −log10 of the molar value. Where a name gives a salt, the structure may show the parent alone.
Outcome: true (1) for pEC50 of at least 7; false (0) for anything lower.

compound="COCCCO[C@H]1CN(c2ccc(OC3CCN(c4cc(OC)ncc4Cl)CC3CC(C)C)cc2)[C@@H](CC(=O)O)[C@@H]1C (single isomer, unassigned) [Example 19, Isomer 2]" discrete_label="false (0)"
compound="CCOc1ccc(F)c(N2CCC(Oc3ccc(N4C[C@H](OCCCOC)[C@@H](C)[C@@H]4CC(=O)O)cc3)C(C)C2)c1 (single isomer, unassigned) [Example 14, HCl]" discrete_label="true (1)"
compound="CCOc1ccc(F)c(N2CCC(Oc3ccc(N4C[C@H](OCCCOC)[C@@H](C)[C@@H]4CC(=O)O)cn3)CC2)c1 [Example 5]" discrete_label="false (0)"

Next up:
Check if pEC50 >= 7 (inclusive). Item: CCOc1ccc(F)c(N2CCC(Oc3ccc(N4C[C@H](OCCOC)C[C@@H]4CC(=O)O)cc3)CC2)c1 [Example 13, TFA] false (0)
